- assay_info: reversal of MRP1-mediated doxorubicin resistance, pilot screen, H69AR cells, doxorubicin co-treatment (AID 601)
- applied_conditions: H69AR cells, CellTiter-Glo, 72 h; compound alone cytotoxicity; at 10 µM
Below is a list of entries, each paired with its recorded viability value.
Kindly answer with a numeric value in %, unit omitted.

Worked examples follow.
[[record]]
compound = "CCOc1ccc(CNc2ccc3c(c2)ncn3C)cc1"
assay_value = 93.2

[[record]]
compound = "Cc1ccc(N2CCN(C(=O)c3ccccc3)CC2)c(C)c1"
assay_value = 91.1

[[record]]
compound = "CCOC(=O)C1=C(N)OC2=C(C(=O)CC(C)(C)C2)C1c1ccco1 (stereo unspecified)"
assay_value = 87.8


## Input Which viability is reported for this compound? Cc1ccc(S(=O)(=O)N2CCN(C(=O)N3CCOCC3)C2c2ccc(N(C)C)cc2)cc1 (stereo unspecified)
## Output 110

## Input Which viability is reported for this compound? Cc1ccc(CN2CCN(C(=O)C3CCC3)CC2)cc1
## Output 97

----------
- assay_info: reversal of MRP1-mediated doxorubicin resistance, pilot screen, H69AR cells, doxorubicin co-treatment (AID 601)
- applied_conditions: H69AR cells + 2 uM doxorubicin, CellTiter-Glo, 72 h; measured here: viability with 2 uM doxorubicin; at 10 µM; stronger effect = lower value
Rule: viability below 90% gives Yes, anything at or above gives No.

# example entries with known answers
[[record]]
structure = "CCOC(=O)CSc1nnc(-c2ccc(Cl)cc2Cl)o1"
cat = "No"

[[record]]
structure = "CCn1c(SCC(=O)Nc2cc(C)on2)nc2sc3c(c2c1=O)CCCC3"
cat = "Yes"

[[record]]
structure = "CCCn1c(=N)n(CCOc2ccc(OC)cc2)c2ccccc21"
cat = "Yes"

[[record]]
structure = "CCOC(=O)CSc1nc2sc(C)c(C)c2c(=O)[nH]1"
cat = "No"

[[record]]
structure = "CCOC(=O)Nc1nnc(-c2ccccc2OC)s1"
cat = "No"


## Input Problem: For the compound CC(=O)O[C@@]12CO[C@@H]1C[C@H](O)[C@@]1(C)C(=O)[C@H](O)C3=C(C)[C@@H](OC(=O)[C@H](O)[C@@H](NC(=O)OC(C)(C)C)c4ccccc4)C[C@](O)([C@@H](OC(=O)c4ccccc4)[C@H]21)C3(C)C , is viability under 90%?
## Output No

----------
- assay_info: reducers of endogenous Her2 protein level, primary screen, SKBR3 breast tumor cells, AlphaScreen, ATP viability (AID 461);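 note: percent of carrier control wells set as 100% viability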
- applied_conditions: 18-24 h, measured here: SKBR3 viability, ATP luminescence, at 10 µM
measured_parameter: viability (%)
Kindly answer with a numeric value in %, unit omitted.

Worked examples follow.
[[record]]
compound = "O=C(CSc1ncnc2ccccc12)N1CCN(c2ccccc2)CC1"
measured_parameter = "viability"
assay_value = 102

[[record]]
compound = "CCOCCCNC(=O)c1cc2sc(Cl)cc2n1CC"
measured_parameter = "viability"
assay_value = 89

[[record]]
compound = "CCOC(=O)c1sc(NC(=O)CSc2nnc(-c3ccco3)n2CC)c(C(=O)OCC)c1C"
measured_parameter = "viability"
assay_value = 101

[[record]]
compound = "COc1ccc2cc(CN(CCO)C(=O)c3ccc(Br)cc3)c(=O)[nH]c2c1"
measured_parameter = "viability"
assay_value = 98


## Input Which viability is reported for this compound? COC(=O)C1=CN(C)C=C(C(=O)OC)C1c1ccc(O)c(OC)c1
## Output 96.5

----------
Below is a list of entries, each paired with its recorded inhibition value.
- assay_info: 384-well plate pilot, post-Golgi transport modulator project, inhibition of yeast transport mutant growth (AID 636)
- applied_conditions: absorbance 615 nm, about 18 h, stronger effect = higher value
Kindly answer with a numeric value in %, unit omitted.

Worked examples follow.
[[record]]
molecule = "CCOC(=O)C1=C(C)N(C)C(C)=C(C(=O)OCC)C1c1cccnc1"
value_unit = "%"
assay_value = 0.79

[[record]]
molecule = "CCCCCCc1ccc(-c2ncc(N)cn2)cc1"
value_unit = "%"
assay_value = -1.47

[[record]]
molecule = "Cc1cc(C(=O)COc2cccc3cccnc23)c(C)n1C"
value_unit = "%"
assay_value = -2.67


## Input Which inhibition is reported for this molecule? COc1ccccc1-n1cnnc1SCC(=O)c1ccc[nH]1
## Output -2.21

## Input Which inhibition is reported for this molecule? Cc1cncn1CCc1nc2c3ccccc3nc(=S)n2[nH]1
## Output -3.68

----------
- assay_info: HUVEC growth inhibition – cell-based, human, primary screen (AID 575);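 note: 100% = median of untreated cell wells with 0.1% DMSO on each plate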
- applied_conditions: HUVEC proliferation, CellTiter-Glo luminescence, 72 h; at 10 µM
Active and inactive are the calls of the source.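 Rule for the calls: active = viability at or below 30% in both replicate assays; inconclusive = viability at or below 30% in just one of the two assays; inactive = the rest.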
Hello, when you answer, please use one of the following outcomes: Yes = active, No = inactive

# example entries with known answers
[[record]]
compound = "CCOC(=O)c1ccc2[nH]c3c(c2c1)CCCCC3=O"
cat = "No"

[[record]]
compound = "CCOC(=O)C1CCCN(C(=O)Cc2ccc(OC)c(OC)c2)C1 (centres undefined)"
cat = "No"

[[record]]
compound = "CCSc1nc(N)c(C#N)c(-c2ccccc2Cl)c1C#N"
cat = "No"

[[record]]
compound = "COc1ccccc1N1CCN(C(CNS(=O)(=O)c2cc(F)ccc2F)c2cccnc2)CC1 (centres undefined)"
cat = "No"

[[record]]
compound = "COc1ccc(-c2c(=O)n(OCc3ccccn3)c3ccccc3[n+]2[O-])cc1OC"
cat = "No"

[[record]]
compound = "CC(=O)NC1(C(F)(F)F)NC(=O)N(CC(C)C)C1=O (centres undefined)"
cat = "No"


## Input Any idea what this test logged for Cc1ccc(S(=O)(=O)CC2CSc3nnc(C)c(=O)n32)cc1 (centres undefined) ?
## Output No

## Input Any idea what this test logged for Cc1c(NC(=O)Cn2nc(C(=O)O)c3ccccc3c2=O)c(=O)n(-c2ccccc2)n1C ?
## Output No

## Input Any idea what this test logged for Cn1nc(-c2ccc(C(=O)NCC3CCCO3)cc2)c2ccccc2c1=O (centres undefined) ?
## Output No

## Input Any idea what this test logged for CCCN1CCN(C(=O)Cn2cccc2C(=O)c2ccccc2)CC1 ?
## Output No

## Input Any idea what this test logged for CC1(C)S[C@@H]2[C@H](NC(=O)[C@H](N)c3ccccc3)C(=O)N2[C@H]1C(=O)O ?
## Output No

## Input Any idea what this test logged for CC1CCN(CCC(=O)Nc2ccc(Br)cc2)CC1 ?
## Output No

## Input Any idea what this test logged for Cc1nc2oc3c(NCc4ccccn4)ncnc3c2c2c1COC(C)(C)C2 ?
## Output No

----------
- assay_info: reversal of MRP1-mediated doxorubicin resistance, pilot screen, H69AR cells, doxorubicin co-treatment (AID 601)
- applied_conditions: H69AR cells + 2 uM doxorubicin, CellTiter-Glo, 72 h; at 10 µM; stronger effect = higher value
measured_parameter: differential viability (reversal) (%)
Kindly answer with a numeric value in %, unit omitted.

Worked examples follow.
[[record]]
compound = "Cc1ccc(S(=O)(=O)N2CCOCC2)cc1C(=O)Nc1ccc(-c2cn3ccsc3n2)cc1"
value_unit = "%"
assay_value = -0.105

[[record]]
compound = "CCOCCn1c(CN2CCN(c3cccc(Cl)c3)CC2)nc2c1c(=O)n(C)c(=O)n2C"
value_unit = "%"
assay_value = 41.5

[[record]]
compound = "CC(C)[C@H](NC(=O)OC(C)(C)C)c1nnc(S(=O)(=O)Cc2c(F)cccc2Cl)o1"
value_unit = "%"
assay_value = 0.065

[[record]]
compound = "Cn1c(=O)c2c(-c3ccncc3)c3c(nc2n(C)c1=O)-c1ccccc1C3=O"
value_unit = "%"
assay_value = 2.95


## Input Which differential viability (reversal) is reported for this compound? CCN(CC)S(=O)(=O)c1ccc2[nH]cc(C(=O)NCCC3=CCCCC3)c(=O)c2c1
## Output -40.9

## Input Which differential viability (reversal) is reported for this compound? CN1CCN(C(=O)NC2CCCN2S(=O)(=O)c2ccc(Cl)cc2)CC1 (configuration not stated)
## Output -0.73

## Input Which differential viability (reversal) is reported for this compound? O=C(NCC1CCCO1)c1cccc(N2CCCC2=O)c1 (configuration not stated)
## Output -0.795

----------
- assay_info: growth inhibitors of H69AR lung tumor, primary screen, human, duplicate replicates (AID 580);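 note: 100% = mean luminescence of untreated wells and 0% = no signal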
- applied_conditions: H69AR lung tumor cells viability, ATP luminescence, 72 h; at 10 µM
Activity calls are given as the source filed them.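 The calls were made as follows: active = viability at or under a set limit in both replicates, limit being median viability minus 3 SD (cut at about 48% in these data, passing the limit was not always enough); inconclusive = at or under the limit in just one replicate; inactive = at or above the limit in both replicates.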
Hello, when you answer, please use one of the following outcomes: 1 (yes) for active, 0 (no) for inactive

[[record]]
compound = "CC(COc1ccccc1)N(CCCl)Cc1ccccc1 (centres undefined)"
cat = "0 (no)"


## Input Any idea what this test logged for CCn1c(SCC(=O)Nc2ccc3c(c2)OCO3)nc2c(c1=O)SC(C)C2 (centres undefined) ?
## Output 0 (no)

## Input Any idea what this test logged for C[C@H](CCC(=O)O)[C@H]1CC[C@H]2[C@@H]3C(=O)C[C@@H]4CC(=O)CC[C@]4(C)[C@H]3CC(=O)[C@]12C ?
## Output 0 (no)

## Input Any idea what this test logged for COc1ccc(CNC(=O)C(c2ccco2)N(Cc2cccs2)C(=O)Cc2cccs2)cc1 (centres undefined) ?
## Output 0 (no)

## Input Any idea what this test logged for Cc1ccc(-c2cn3cccnc3n2)cc1NC(=O)c1ccc(Br)o1 ?
## Output 0 (no)
